Molecular target: 4-galactosyl-N-acetylglucosaminide 3-alpha-L-fucosyltransferase FUT5 (Homo sapiens, UniProt Q11128)
Sequence (Q11128 whole entry): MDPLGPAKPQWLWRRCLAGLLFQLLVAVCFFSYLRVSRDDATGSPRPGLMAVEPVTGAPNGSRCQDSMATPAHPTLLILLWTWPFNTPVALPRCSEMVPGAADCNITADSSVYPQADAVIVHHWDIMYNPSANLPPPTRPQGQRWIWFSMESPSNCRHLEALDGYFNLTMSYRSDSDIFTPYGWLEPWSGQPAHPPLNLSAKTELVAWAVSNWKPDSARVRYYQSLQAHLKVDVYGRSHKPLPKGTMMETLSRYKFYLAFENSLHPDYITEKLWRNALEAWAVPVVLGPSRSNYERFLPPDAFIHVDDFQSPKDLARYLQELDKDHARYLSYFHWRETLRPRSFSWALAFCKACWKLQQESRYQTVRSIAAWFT
Assay: Inhibitory activity against fucosyltransferase (FucT V) in the presence of 1 mM fucosyl acceptor N-acetyllactosamine
measured.parameter: IC50 (µM)
Could you give me the number in µM? Just the number is fine.

// IC50 value for C[C@@H]1N[C@H](COP(=O)(O)OP(=O)(O)OC[C@H]2O[C@@H](n3cnc4c(O)nc(N)nc43)[C@H](O)[C@@H]2O)[C@@H](O)[C@@H]1O : 45

###

Molecular target: 4-galactosyl-N-acetylglucosaminide 3-alpha-L-fucosyltransferase FUT5 (Homo sapiens)
Assay: Inhibitory activity against fucosyltransferase (FucT V) in the presence of 10 mM fucosyl acceptor N-acetyllactosamine
measured.parameter: pIC50
A value of pIC50 is the negative decimal logarithm of a concentration given in moles per litre.

// pIC50 value for C[C@@H]1N[C@H](COP(=O)(O)OP(=O)(O)OC[C@H]2O[C@@H](n3cnc4c(O)nc(N)nc43)[C@H](O)[C@@H]2O)[C@@H](O)[C@@H]1O : 4.09
